- target.or.test.system: Recombinant human AKR1C3 (17β-HSD5) protein (Homo sapiens)
- Construct: made in house; host or cells: E. coli
- Sequence (P42330 whole entry): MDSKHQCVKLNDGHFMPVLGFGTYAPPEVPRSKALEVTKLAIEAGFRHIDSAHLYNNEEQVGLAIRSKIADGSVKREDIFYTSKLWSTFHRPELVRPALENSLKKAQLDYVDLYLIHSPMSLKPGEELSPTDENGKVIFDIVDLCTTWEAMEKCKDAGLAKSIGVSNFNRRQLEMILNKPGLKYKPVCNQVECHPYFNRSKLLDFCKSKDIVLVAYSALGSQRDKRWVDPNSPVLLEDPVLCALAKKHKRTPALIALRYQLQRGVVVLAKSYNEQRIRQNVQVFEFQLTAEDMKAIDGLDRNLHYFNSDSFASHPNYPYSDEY
- protocol.text: Inhibition of AKR1C3 (17β-hydroxysteroid dehydrogenase type 5) enzyme, fluorescence assay
- Format: biochemical
- condition.context: inhibitor at 500 nM
Task for the reader: assign each of the following molecules its reported inhibition at 0.5 µM.
One number for each entry, in %.

A selection of reference data follows.
{"structure.smiles": "COCC1CCN(C(=O)N2CCC(=C(C#N)c3ccc(F)cc3)CC2)CC1", "measured.property": "inhibition at 0.5 µM", "value": 93}
{"structure.smiles": "CCCOC1CCN(C(=O)N2CCC(=C(C#N)c3ccc(Cl)cc3)CC2)CC1", "measured.property": "inhibition at 0.5 µM", "value": 98}
{"structure.smiles": "CO[C@@H]1CCN(C(=O)N2CCC(=C(C#N)c3ccc(F)cc3)CC2)C1", "measured.property": "inhibition at 0.5 µM", "value": 95}
{"structure.smiles": "N#CC(=C1CCN(C(=O)N2CCn3cncc3C2)CC1)c1ccc(F)c(F)c1", "measured.property": "inhibition at 0.5 µM", "value": 103}
{"structure.smiles": "COC1CCN(C(=O)N2CCC(=C(C#N)c3ccc(Cl)cn3)CC2)CC1", "measured.property": "inhibition at 0.5 µM", "value": 95}

Dear colleague, could you send me inhibition at 0.5 µM for each of the items below? Thanks.
1. N#CC(=C1CCN(C(=O)N2CCc3[nH]ncc3C2)CC1)c1cc(F)cc(F)c1
2. N#CC(=C1CCN(C(=O)N2CCn3ncnc3C2)CC1)c1cccc(Cl)c1
3. N#CC(=C1CCN(C(=O)N2CCc3sccc3C2)CC1)c1ccc(F)cc1F

Response line:
1: 98; 2: 99; 3: 96

---

Task for the reader: assign each of the following compounds its reported inhibition at 10 µM.
- target.or.test.system: Recombinant human aldo-keto reductase family 1 member C2 (AKR1C2) protein (Homo sapiens, UniProt P52895)
- Construct: made in house; host or cells: Sf-9 insect cells (baculovirus)
- Sequence (P52895 whole entry): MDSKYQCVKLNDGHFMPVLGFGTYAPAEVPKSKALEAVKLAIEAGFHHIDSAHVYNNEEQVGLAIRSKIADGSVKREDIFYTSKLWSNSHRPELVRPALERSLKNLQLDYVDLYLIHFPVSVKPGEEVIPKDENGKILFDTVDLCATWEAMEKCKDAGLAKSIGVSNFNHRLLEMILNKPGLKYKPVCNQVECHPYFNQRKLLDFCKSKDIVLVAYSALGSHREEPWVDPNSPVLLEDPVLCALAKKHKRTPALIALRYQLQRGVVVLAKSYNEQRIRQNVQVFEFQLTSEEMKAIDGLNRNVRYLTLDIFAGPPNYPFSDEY
- protocol.text: Inhibition of the aldo-keto reductase family 1 member C2, 3H-dihydrotestosterone conversion
- Format: biochemical
- condition.context: inhibitor at 10 μM
- Procedure: Inhibition of the Aldo-Keto Reductase Family 1 Member C2 Recombinant human aldo-keto reductase family 1 member C2 (AKR1C2) protein (GenBank Accession No. NM_001354.6) produced in Sf-9 insect cells with baculovirus was used for screening. […] The eluent was mixed with scintillant and the radioactivity was monitored in the eluate by a Scintillation Analyser. […] The inhibition percentages of samples were calculated using following formula: […]
Numbers only, in %.

{"compound": "N#CC(=C1CCN(C(=O)N2CCC(O)CC2)CC1)c1ccc(Cl)s1", "value": 13}
{"compound": "Cn1ncc2cccc(C(C#N)=C3CCN(C(=O)N4CCn5cncc5C4)CC3)c21", "value": 5}
{"compound": "N#CC(=C1CCN(C(=O)N2CC3CCCC3C2)CC1)c1ccc(F)cc1 (stereo not shown)", "value": 11}

Prompt line: Item `N#CC(=C1CCN(C(=O)N2CCC(CO)CC2)CC1)c1ccc(OC(F)(F)F)cc1` has what recorded inhibition at 10 µM?
Response line: 7

---

- target.or.test.system: 17β-Hydroxysteroid Dehydrogenase Type 2 Enzyme (17β-HSD2) (Homo sapiens)
- Construct: made in house; host or cells: Sf-9 insect cells (baculovirus)
- Sequence (P37059 1-387): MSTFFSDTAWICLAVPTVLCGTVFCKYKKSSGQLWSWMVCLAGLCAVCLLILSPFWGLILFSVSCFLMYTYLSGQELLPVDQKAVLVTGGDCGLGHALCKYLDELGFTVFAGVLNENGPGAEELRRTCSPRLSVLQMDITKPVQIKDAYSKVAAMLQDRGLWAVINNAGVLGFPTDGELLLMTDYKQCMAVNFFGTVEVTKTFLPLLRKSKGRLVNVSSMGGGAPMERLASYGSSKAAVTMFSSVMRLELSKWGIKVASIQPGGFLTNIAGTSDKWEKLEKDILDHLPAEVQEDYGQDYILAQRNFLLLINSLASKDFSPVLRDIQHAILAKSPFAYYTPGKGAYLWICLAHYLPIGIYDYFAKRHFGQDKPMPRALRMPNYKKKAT
- protocol.text: Inhibition of the 17β-hydroxysteroid dehydrogenase type 2 enzyme, 3H-testosterone conversion
- Assay type: biochemical
- condition.context: inhibitor at 10 μM
Task for the reader: assign each of the following molecules its reported inhibition at 10 µM.

A selection of reference data follows.
{"molecule": "CC(O)C1CCN(C(=O)N2CCC(=C(C#N)c3ccc(OC(F)(F)F)cc3)CC2)CC1 (centres unmarked)", "measured.property": "inhibition at 10 µM", "value": "9%"}
{"molecule": "N#CC(=C1CCN(C(=O)N2CCn3cncc3C2)CC1)c1ccc(F)c(F)c1", "measured.property": "inhibition at 10 µM", "value": "12%"}

Dear colleague, could you send me inhibition at 10 µM for each of the items below? Thanks.
1. N#CC(=C1CCN(C(=O)N2CCc3[nH]ncc3C2)CC1)c1ccc(OC(F)(F)F)cc1
2. N#CC(=C1CCN(C(=O)N2CCc3nocc3C2)CC1)c1ccc(OC(F)(F)F)cc1

Response line:
["20%", "1%"]

Dear colleague, could you send me inhibition at 10 µM for each of the items below? Thanks.
1. N#CC(=C1CCN(C(=O)N2CCC(O)CC2)CC1)c1ccc(F)c(F)c1
2. CCN(CC)C(=O)N1CCC(=C(C#N)c2ccc(OC(F)(F)F)cc2)CC1
3. COC1CN(C(=O)N2CCC(=C(C#N)c3ccc(F)cc3)CC2)C1

Response line:
["7%", "28%", "7%"]

Dear colleague, could you send me inhibition at 10 µM for each of the items below? Thanks.
1. N#CC(=C1CCN(C(=O)N2CCc3[nH]ncc3C2)CC1)c1cccc2[nH]ncc12
2. N#CC(=C1CCN(C(=O)N2C3CCC2COC3)CC1)c1ccc(F)cc1
3. N#CC(=C1CCN(C(=O)N2CCCCC2)CC1)c1ccc(F)cc1
4. N#CC(=C1CCN(C(=O)N2CCC(O)CC2)CC1)c1ccc(F)cc1F
5. N#CC(=C1CCN(C(=O)N2CCC(CCCO)CC2)CC1)c1ccc(Cl)cc1

Response line:
["29%", "11%", "28%", "10%", "17%"]

Dear colleague, could you send me inhibition at 10 µM for each of the items below? Thanks.
1. N#CC(=C1CCN(C(=O)N2CC(CO)C2)CC1)c1ccc(F)cc1
2. CCOC1CCN(C(=O)N2CCC(=C(C#N)c3ccc(Cl)s3)CC2)CC1
3. N#CC(=C1CCN(C(=O)N2CCC(O)CC2)CC1)c1ccc(Cl)s1
4. N#CC(=C1CCN(C(=O)N2CCC(CO)CC2)CC1)c1ccc(Cl)s1
5. N#CC(=C1CCN(C(=O)N2CCn3ncnc3C2)CC1)c1ccc(Cl)cn1
6. N#CC(=C1CCN(C(=O)N2CCC(O)CC2)CC1)c1ccc(OC(F)(F)F)cc1
7. CCN(CC)C(=O)N1CCC(=C(C#N)c2ccc(F)cc2)CC1

Response line:
["27%", "17%", "3%", "22%", "6%", "-1%", "15%"]

Hey, just so you know, these numbers are from patent US12637471B2.
